Would you mind telling me the reported protein stability index of each entry?
B1: TRIM43 (parent)
chain: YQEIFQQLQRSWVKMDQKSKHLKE

Variants of: B1
Test: protein stability index of a GFP-peptide fusion (GPS, HEK-293T) (PSI 1-6); higher = more stable;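 note: lentivirally expressed fusions sorted by FACS into six bins by GFP to DsRed ratio, PSI derived from sequencing read proportions per bin multiplied by bin number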
Settings: c terminus: a fixed tail appended

Query :: Fill blank: measured protein stability index of the variant V13G is ____.
Result :: 2.79

Query :: Fill blank: measured protein stability index of the variant R10P is ____.
Result :: 2.55

Query :: Fill blank: measured protein stability index of the variant R10M is ____.
Result :: 2.57

Query :: Fill blank: measured protein stability index of the variant K18V is ____.
Result :: 1.69

Query :: Fill blank: measured protein stability index of the variant D16R is ____.
Result :: 2.2

Query :: Fill blank: measured protein stability index of the variant W12F is ____.
Result :: 2.57

Query :: Fill blank: measured protein stability index of the variant D16T is ____.
Result :: 2.09

Query :: Fill blank: measured protein stability index of the variant S19H is ____.
Result :: 1.83
